# EXPERIMENT NOTES: Absorbance and fluorescence emission spectra (SpectraMax M2)
# Format: physicochemical
# TEST CONDITIONS: BDCAC library, Table 3
Kindly state λmax Emission for each of the entries shown.
# number only, unit nm dropped from output

Return λmax Emission (reported value) for this molecule: CCc1ccc(-c2cn(-c3ccc4n3[B-](F)(F)[N+]3=C(N5CCCCC5)C=CC3=C4c3ccc(NC(C)=O)cc3)nn2)cc1
578

Return λmax Emission (reported value) for this molecule: CC(=O)Nc1ccc(C2=C3C=CC(N4CCCCC4)=[N+]3[B-](F)(F)n3c2ccc3-n2cc(C3CCCCC3)nn2)cc1
560

Return λmax Emission (reported value) for this molecule: CCCCc1cn(-c2ccc3n2[B-](F)(F)[N+]2=C(N4CCCCC4)C=CC2=C3c2ccc(NC(C)=O)cc2)nn1
577

Return λmax Emission (reported value) for this molecule: CC(=O)Nc1ccc(C2=C3C=CC(N4CCCCC4)=[N+]3[B-](F)(F)n3c2ccc3-n2cc(C(C)(C)C)nn2)cc1
580

Return λmax Emission (reported value) for this molecule: CC(=O)Nc1ccc(C2=C3C=CC(N4CCCCC4)=[N+]3[B-](F)(F)n3c2ccc3-n2cc(C3CC3)nn2)cc1
578

Return λmax Emission (reported value) for this molecule: CC(=O)Nc1ccc(C2=C3C=CC(N4CCCCC4)=[N+]3[B-](F)(F)n3c2ccc3-n2cc(CN(C)Cc3ccccc3)nn2)cc1
588

Return λmax Emission (reported value) for this molecule: CC(=O)Nc1ccc(C2=C3C=CC(N4CCCCC4)=[N+]3[B-](F)(F)n3c2ccc3-n2cc(-c3ccc(N(C)C)cc3)nn2)cc1
619

Return λmax Emission (reported value) for this molecule: CCCCCCCCc1cn(-c2ccc3n2[B-](F)(F)[N+]2=C(N4CCCCC4)C=CC2=C3c2ccc(NC(C)=O)cc2)nn1
581

Return λmax Emission (reported value) for this molecule: CCCCCCc1cn(-c2ccc3n2[B-](F)(F)[N+]2=C(N4CCCCC4)C=CC2=C3c2ccc(NC(C)=O)cc2)nn1
562

Return λmax Emission (reported value) for this molecule: CC(=O)Nc1ccc(C2=C3C=CC(N4CCCCC4)=[N+]3[B-](F)(F)n3c2ccc3-n2cc(CC(C)C)nn2)cc1
581

Return λmax Emission (reported value) for this molecule: CC(=O)Nc1ccc(C2=C3C=CC(N4CCCCC4)=[N+]3[B-](F)(F)n3c2ccc3-n2cc(-c3ccc(OC(F)(F)F)cc3)nn2)cc1
537

###

# EXPERIMENT NOTES: Quantum yield measurements versus Acridine Yellow in EtOH
# Format: physicochemical
# TEST CONDITIONS: MKCA compound library; quantum yield
PARAMETER MEASURED: φ (%)
# number only, unit % dropped from output

Return φ (%) (reported value) for this molecule: CCCCCC(O)c1cn(-c2ccc3n2[B-](F)(F)[N+]2=C(NCc4cc(F)cc(F)c4)C=CC2=C3c2ccc(NC(=O)CCl)cc2)nn1 (centres unmarked)
30.05

Return φ (%) (reported value) for this molecule: CCCCCC(O)c1cn(-c2ccc3n2[B-](F)(F)[N+]2=C(N(C)Cc4ccccc4)C=CC2=C3c2ccc(NC(=O)CCl)cc2)nn1 (centres unmarked)
4.20

Return φ (%) (reported value) for this molecule: CCCc1cn(-c2ccc3n2[B-](F)(F)[N+]2=C(N4CCc5ccccc5C4)C=CC2=C3c2ccc(NC(=O)CCl)cc2)nn1
3.18

Return φ (%) (reported value) for this molecule: O=C(CCl)Nc1ccc(C2=C3C=CC(N4CCCC4)=[N+]3[B-](F)(F)n3c2ccc3-n2cc(CCc3ccccc3)nn2)cc1
4.98

Return φ (%) (reported value) for this molecule: CCCC(C)c1cn(-c2ccc3n2[B-](F)(F)[N+]2=C(N(C)Cc4ccccc4)C=CC2=C3c2ccc(NC(=O)CCl)cc2)nn1 (centres unmarked)
7.95
